Give measured NFkB-Luc fold change in Jurkat stimulated by anti-CD3+ anti-CD28 for each item. Keep answers brief.
# TARGET SYSTEM: T1, human OX40 on cells (CHO-hOX40, 293HEK-hOX40, Jurkat-hOX40, activated primary CD4+ T cells) (human, UniProt P43489 29-277)
# T1 sequence (looked up): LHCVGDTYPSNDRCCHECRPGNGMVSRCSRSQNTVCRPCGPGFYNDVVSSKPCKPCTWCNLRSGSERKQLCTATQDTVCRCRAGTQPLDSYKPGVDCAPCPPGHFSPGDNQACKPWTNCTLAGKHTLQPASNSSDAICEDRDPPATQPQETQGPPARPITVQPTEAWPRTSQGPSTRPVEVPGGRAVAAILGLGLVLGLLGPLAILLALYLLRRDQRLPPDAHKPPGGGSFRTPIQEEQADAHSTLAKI
# PROCEDURE DETAILS: cell-based or functional assay
Kindly answer with a numeric value in fold over IgG4 control, unit omitted.

NFkB-Luc fold change in Jurkat stimulated by anti-CD3+ anti-CD28 measured on ADI-20113, IgG1 format (antibody, V domains shown, Made in yeast) VH: QVQLVESGGGVVQPGRSLRLSCAASGFTFSSYGMHWVRQAPGKGLEWVAVISYDGSNKYYADSVKGRFTISRDNSKNTLYLQMNSLRAEDTAVYYCARGRPWYSETGTSAFDIWGQGTMVTVSS VL: EIVMTQSPATLSVSPGERATLSCRASQSVSSNLAWYQQKPGQAPRLLIYSASTRATGIPARFSGSGSGTEFTLTISSLQSEDFAVYYCQQHNVYPPYTFGGGTKVEIKR = 3.98

NFkB-Luc fold change in Jurkat stimulated by anti-CD3+ anti-CD28 measured on ADI-20048, IgG1 format (antibody, V domains shown, Made in yeast) VH: QVQLQESGPGLVKPSETLSLTCTVSGGSISSYYWSWIRQPPGKGLEWIGYIYSSGSTNYNPSLKSRVTISVDTSKNQFSLKLSSVTAADTAVYYCARDAPGGSSYQDYYMDVWGKGTTVTVSS VL: EIVLTQSPATLSLSPGERATLSCRASQSVSSYLAWFQQKPGQAPRLLIYDASNRATGIPARFSGSGSGTDFTLTISSLEPEDFAVYYCQQAFSMPPTFGGGTKVEIKR = 5.77

NFkB-Luc fold change in Jurkat stimulated by anti-CD3+ anti-CD28 measured on ADI-20066, IgG1 format (antibody, V domains shown, Made in yeast) VH: QLQLQESGPGLVKPSETLSLTCTVSGGSISSSSYYWGWIRQPPGKGLEWIGSIYYSGSTYYNPSLKSRVTISVDTSKNQFSLKLSSVTAADTAVYYCARDPGYSASPNWFDPWGQGTLVTVSS VL: EIVLTQSPGTLSLSPGERATLSCRASQSVSSSFLAWYQQKPGQAPRLLIYGASSRATGIPDRFSGSGSGTDFTLTISRLEPEDFAVYYCQQYDVFPITFGGGTKVEIKR = 1.96
